- targetUnderTest: YLPM1 (UniProt P49750)
- Sequence (P49750 whole entry, looked up): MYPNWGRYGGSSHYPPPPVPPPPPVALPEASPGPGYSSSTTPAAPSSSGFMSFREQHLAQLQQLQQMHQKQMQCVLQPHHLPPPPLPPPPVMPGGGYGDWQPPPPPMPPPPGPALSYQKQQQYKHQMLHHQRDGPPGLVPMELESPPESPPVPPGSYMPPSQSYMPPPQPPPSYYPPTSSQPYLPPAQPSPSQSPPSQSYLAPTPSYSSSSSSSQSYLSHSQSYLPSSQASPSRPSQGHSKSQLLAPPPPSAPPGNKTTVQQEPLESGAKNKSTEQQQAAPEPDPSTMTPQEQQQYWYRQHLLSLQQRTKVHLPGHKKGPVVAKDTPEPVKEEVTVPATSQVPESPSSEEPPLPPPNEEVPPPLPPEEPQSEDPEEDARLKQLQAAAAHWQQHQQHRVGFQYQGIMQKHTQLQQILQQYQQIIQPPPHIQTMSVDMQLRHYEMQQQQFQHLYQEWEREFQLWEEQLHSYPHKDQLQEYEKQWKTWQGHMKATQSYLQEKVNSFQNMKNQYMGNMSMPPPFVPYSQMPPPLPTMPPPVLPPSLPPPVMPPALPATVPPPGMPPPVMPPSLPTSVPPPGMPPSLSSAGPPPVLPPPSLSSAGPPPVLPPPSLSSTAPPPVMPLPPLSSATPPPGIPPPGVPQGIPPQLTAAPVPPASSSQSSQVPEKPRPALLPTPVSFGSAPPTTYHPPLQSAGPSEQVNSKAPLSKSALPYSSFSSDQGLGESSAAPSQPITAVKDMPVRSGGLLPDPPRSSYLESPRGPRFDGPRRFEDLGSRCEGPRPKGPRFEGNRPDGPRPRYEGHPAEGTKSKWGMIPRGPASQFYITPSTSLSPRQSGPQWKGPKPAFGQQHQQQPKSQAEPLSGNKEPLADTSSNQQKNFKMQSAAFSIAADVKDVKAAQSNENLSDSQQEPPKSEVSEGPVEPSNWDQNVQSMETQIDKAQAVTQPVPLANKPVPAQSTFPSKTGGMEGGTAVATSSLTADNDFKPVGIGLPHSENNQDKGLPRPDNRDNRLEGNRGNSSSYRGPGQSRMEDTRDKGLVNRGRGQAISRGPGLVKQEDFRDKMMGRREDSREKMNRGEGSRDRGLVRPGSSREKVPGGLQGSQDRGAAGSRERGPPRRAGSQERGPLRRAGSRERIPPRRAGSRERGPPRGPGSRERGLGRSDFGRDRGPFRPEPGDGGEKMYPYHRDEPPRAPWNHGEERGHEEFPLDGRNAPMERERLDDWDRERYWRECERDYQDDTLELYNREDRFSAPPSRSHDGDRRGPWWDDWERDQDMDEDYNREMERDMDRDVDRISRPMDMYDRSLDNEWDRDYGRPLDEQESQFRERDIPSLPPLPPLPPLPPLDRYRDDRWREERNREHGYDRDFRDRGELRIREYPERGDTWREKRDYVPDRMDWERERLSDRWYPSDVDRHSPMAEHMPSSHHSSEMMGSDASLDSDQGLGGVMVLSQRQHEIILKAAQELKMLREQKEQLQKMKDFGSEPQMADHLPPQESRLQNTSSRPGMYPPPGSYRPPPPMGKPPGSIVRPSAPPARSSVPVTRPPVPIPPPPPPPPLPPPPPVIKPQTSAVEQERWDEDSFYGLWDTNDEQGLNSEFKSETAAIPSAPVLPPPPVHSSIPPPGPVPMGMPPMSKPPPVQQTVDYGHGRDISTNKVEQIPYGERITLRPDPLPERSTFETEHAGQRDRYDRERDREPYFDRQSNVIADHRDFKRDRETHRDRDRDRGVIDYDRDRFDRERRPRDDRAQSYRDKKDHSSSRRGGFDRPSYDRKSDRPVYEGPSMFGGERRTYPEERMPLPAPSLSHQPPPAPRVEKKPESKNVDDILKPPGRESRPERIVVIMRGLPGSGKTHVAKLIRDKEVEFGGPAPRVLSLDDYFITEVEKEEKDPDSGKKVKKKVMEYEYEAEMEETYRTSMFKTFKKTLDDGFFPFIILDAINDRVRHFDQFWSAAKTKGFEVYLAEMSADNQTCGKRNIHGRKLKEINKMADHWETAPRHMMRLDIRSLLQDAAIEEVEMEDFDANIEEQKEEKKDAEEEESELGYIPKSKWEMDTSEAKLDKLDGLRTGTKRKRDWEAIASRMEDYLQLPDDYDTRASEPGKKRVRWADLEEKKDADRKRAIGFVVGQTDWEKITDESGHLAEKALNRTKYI
- procedureDetails: log2 fold change, soluble protein after heating vs DMSO (PISA); higher = thermal stabilisation; K562 cells, 10 uM, 30 min; active = over 0.2 and 3.5 SD of the protein, either way, in both replicates (recomputed)
Targets with a hit are over-represented here; the source holds about 7,900 in all. About 0.6% of all pairs of compound and target were hits.
Catalogue of compounds with associated log2 fold change
// print number alone

Solved cases below.
Cc1nc(Nc2ncc(C(=O)Nc3c(C)cccc3Cl)s2)cc(N2CCN(CCO)CC2)n1    -0.062
Cc1cn(-c2cc(NC(=O)c3ccc(C)c(Nc4nccc(-c5cccnc5)n4)c3)cc(C(F)(F)F)c2)cn1    -0.044
Cc1nc(Nc2n[nH]c3c2CN(C(=O)N[C@H](CN(C)C)c2ccccc2)C3(C)C)c2sccc2n1    -0.075

As a next step, examine the compound that follows.
-- ask # return recorded log2 fold change for input "Cc1ccc2c(=O)c3ccccc3n(CCCN)c2c1C"
-- reply 0.023

---

- targetUnderTest: ZNF277 (UniProt Q9NRM2)
- Sequence (Q9NRM2 whole entry, looked up): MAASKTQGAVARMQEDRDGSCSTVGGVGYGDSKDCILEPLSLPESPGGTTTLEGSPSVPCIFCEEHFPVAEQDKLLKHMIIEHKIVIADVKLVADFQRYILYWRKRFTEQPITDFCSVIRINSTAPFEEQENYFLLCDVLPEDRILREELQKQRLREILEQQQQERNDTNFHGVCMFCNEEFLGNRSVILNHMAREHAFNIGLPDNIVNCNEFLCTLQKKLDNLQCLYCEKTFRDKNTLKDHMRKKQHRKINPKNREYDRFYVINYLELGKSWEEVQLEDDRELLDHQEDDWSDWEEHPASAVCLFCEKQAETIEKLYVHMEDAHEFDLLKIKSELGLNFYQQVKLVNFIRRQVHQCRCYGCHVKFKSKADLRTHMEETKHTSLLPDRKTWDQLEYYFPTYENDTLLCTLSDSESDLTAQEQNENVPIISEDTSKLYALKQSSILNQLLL
- procedureDetails: log2 fold change, soluble protein after heating vs DMSO (PISA); higher = thermal stabilisation; K562 cells, 10 uM, 30 min; active = over 0.2 and 3.5 SD of the protein, either way, in both replicates (recomputed)
About 7,900 targets were measured; listed, in parts, are those with a hit and a random draw of the rest. About 0.6% of all pairs of compound and target were hits.
Label Yes for high-side log2 fold change (at or above 0.1) and No for low-side log2 fold change (below it).

Solved entries:
CC(C)(C)Cn1c(N)nc2ccc(-c3[nH]c(C(C)(C)C)nc3-c3ccc(F)cc3)nc21    Yes
CNc1nc(-c2ccc3c(N)n[nH]c3c2)cc(N2C[C@@H](C(=O)NC3CCCCC3)CC[C@H]2C)n1    Yes
CN1CCC(CNc2ccc3ncc(-c4cccc(OC(F)(F)F)c4)n3n2)CC1    No
Fc1ccc(Cl)cc1-c1nc(Nc2ccncc2)c2nccnc2n1    No

-- ask For this compound, is measured log2 fold change 0.1 or higher? "CNCc1ccc(-c2[nH]c3cc(F)cc4c3c2CCNC4=O)cc1"
-- reply No

-- ask For this compound, is measured log2 fold change 0.1 or higher? "Cc1ccc(NC(=O)c2ccc(CN3CC[C@H](N(C)C)C3)c(C(F)(F)F)c2)cc1Nc1nccc(-c2cncnc2)n1"
-- reply Yes

-- ask For this compound, is measured log2 fold change 0.1 or higher? "CN1CCc2c(c3ccccc3n2Cc2ccc(C(=O)NO)cc2)C1"
-- reply Yes

-- ask For this compound, is measured log2 fold change 0.1 or higher? "C[C@@H](N)c1ccc(C(=O)Nc2ccnc3[nH]ccc23)cc1"
-- reply Yes

-- ask For this compound, is measured log2 fold change 0.1 or higher? "Cn1cncc1[C@@](N)(c1ccc(Cl)cc1)c1ccc2c(c1)c(-c1cccc(Cl)c1)cc(=O)n2C"
-- reply No

-- ask For this compound, is measured log2 fold change 0.1 or higher? "O=C1NC(=NCc2cccs2)S/C1=C\c1ccc2ncccc2c1"
-- reply No

-- ask For this compound, is measured log2 fold change 0.1 or higher? "CN(C)CC(=O)Nc1ccc2[nH]c(=O)c3ccccc3c2c1"
-- reply No

---

Catalogue of molecules with associated log2 fold change
- targetUnderTest: YOD1 (UniProt Q5VVQ6)
- Sequence (Q5VVQ6 whole entry, looked up): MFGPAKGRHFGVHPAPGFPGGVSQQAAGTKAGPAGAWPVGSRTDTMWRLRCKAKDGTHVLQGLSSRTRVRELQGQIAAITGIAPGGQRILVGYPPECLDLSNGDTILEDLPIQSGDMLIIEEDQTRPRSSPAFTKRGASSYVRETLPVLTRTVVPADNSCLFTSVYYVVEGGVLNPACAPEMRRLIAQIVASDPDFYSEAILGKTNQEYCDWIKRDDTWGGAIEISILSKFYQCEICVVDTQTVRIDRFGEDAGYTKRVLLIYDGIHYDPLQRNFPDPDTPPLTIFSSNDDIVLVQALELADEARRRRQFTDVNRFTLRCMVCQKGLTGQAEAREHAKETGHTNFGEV
- procedureDetails: log2 fold change, soluble protein after heating vs DMSO (PISA); higher = thermal stabilisation; K562 cells, 10 uM, 30 min; active = over 0.2 and 3.5 SD of the protein, either way, in both replicates (recomputed)
The full data set covers some 7,900 targets. This sample favours those with a hit. About 0.6% of all pairs of compound and target were hits.
// print number alone

C/C(=N\NC(=O)c1cccc(S(=O)(=O)N2CCOCC2)c1)c1cc(Cl)ccc1O    0.053
COc1cc(Nc2ncc3c(n2)-c2ccc(Cl)cc2C(c2c(F)cccc2OC)=NC3)ccc1C(=O)O    0.19

-- ask # return recorded log2 fold change for input "O=C(Nc1nc2ccccc2n1CCN1CCOCC1)c1cccc([N+](=O)[O-])c1"
-- reply 0.019

-- ask # return recorded log2 fold change for input "Cn1cncc1[C@@](N)(c1ccc(Cl)cc1)c1ccc2c(c1)c(-c1cccc(Cl)c1)cc(=O)n2C"
-- reply -0.048

-- ask # return recorded log2 fold change for input "O=C(O)c1ccc2c(c1)nc(Nc1cccc(Cl)c1)c1ccncc12"
-- reply 0.021

-- ask # return recorded log2 fold change for input "CCn1cc(-c2ccnc3[nH]c(-c4cccc(CN(C)C)c4)cc23)c(-c2ccc(NC(=O)N(C)C)cc2)n1"
-- reply -0.101

-- ask # return recorded log2 fold change for input "CN(C)CC(=O)Nc1ccc2[nH]c(=O)c3ccccc3c2c1"
-- reply 0.043

-- ask # return recorded log2 fold change for input "CC[C@H](C)[C@H](NC(=O)[C@H]([C@@H](C)CC)N(C)C(C)=O)C(=O)N[C@H](C(=O)N[C@@H](CC(C)C)C(=O)[C@@]1(C)CO1)[C@@H](C)O"
-- reply 0.051

The reported measurements were obtained from the supplement of paper PMC10849652.
